Where these numbers come from: patent US20080131498A1

# Assay comment: Busulphan AUC before and after NAC in patients (Example 12)
# Format: in vivo, human patients
# Test conditions: human, plasma, oral, patients no 2, 4 and 8, in this order, doses reduced by 35, 15 and 30%; read-out: mean values of the AUC's during doses 4-8
Assay endpoint: AUC (ng·h/mL)
Record the value in ng·h/mL, omitting the unit from your answer.

Task: Please give the measured AUC for this compound: CS(=O)(=O)OCCCCOS(C)(=O)=O
Result: 11400

====

# Assay comment: Half-life of busulphan in RPMI-1640 medium (in vitro pharmacokinetics)
# Type: physicochemical
# Test conditions: 37° C.
Assay endpoint: half-life (h)
Respond with the bare value in h.

Task: Record request: half-life value, item CS(=O)(=O)OCCCCOS(C)(=O)=O
Result: 16
